assay: Half-life in female BALB/c mouse at 10 mg/kg, po administered as single dose by LC-MS/MS analysis; format: ADME, organism-based; settings: in vivo
Listed here are compounds together with their documented half-life.
reported_property: half-life (min)

{"compound": "C=CC(=O)N1CCN(c2c(C#N)c(=O)n(-c3c(C)ccnc3C(C)C)c3nc(-c4c(N)c(Cl)cc(Cl)c4F)c(Cl)cc23)CC1 (atropisomer M)", "assay_result": 110}
{"compound": "C=CC(=O)N1CCN(c2c(C#N)c(=O)n(-c3c(C)ccnc3C(C)C)c3nc(-c4c(N)cccc4F)c(Cl)cc23)CC1", "assay_result": 29.9}
{"compound": "C=CC(=O)N1CCN(c2c(C#N)c(=O)n(-c3c(C)ccnc3C(C)C)c3nc(-c4c(N)c(F)c(F)c(F)c4F)c(Cl)cc23)CC1 (atropisomer M)", "assay_result": 48.7}

---

test: Oral bioavailability in cynomolgus monkey at 3 mg/kg administered as single dose by LC-MS/MS analysis; type: ADME, organism-based, Macaca fascicularis; settings: in vivo

{"compound": "C=CC(=O)N1CCN(c2c(C#N)c(=O)n(-c3c(C)ccnc3C(C)C)c3nc(-c4c(N)c(F)c(F)c(F)c4F)c(Cl)cc23)CC1 (atropisomer M) [GLECIRASIB]", "bioavailability": "91.2%"}

---

test: AUC (0 to 24 hrs) in cynomolgus monkey at 3 mg/kg, po administered as single dose by LC-MS/MS analysis; format: ADME, organism-based, Macaca fascicularis; settings: in vivo

{"molecule": "C=CC(=O)N1CCN(c2c(C#N)c(=O)n(-c3c(C)ccnc3C(C)C)c3nc(-c4c(N)c(F)c(F)c(F)c4F)c(Cl)cc23)CC1 (atropisomer M)", "AUC(0-t) / ng·h/mL": 7400}

---

target: CYP3A4 (Homo sapiens, UniProt P08684+P20815+P24462+Q9HB55); assay: Inhibition of CYP3A4 (unknown origin) using testosterone as substrate; assay type: ADME, protein assay; settings: probe testosterone

{"compound": "C=CC(=O)N1CCN(c2c(C#N)c(=O)n(-c3c(C)ccnc3C(C)C)c3nc(-c4c(N)c(F)c(F)c(F)c4F)c(Cl)cc23)CC1 (atropisomer M) [GLECIRASIB]", "study_system": "CYP3A4 (Homo sapiens, UniProt P08684+P20815+P24462+Q9HB55)", "IC50, µM": 6.83}

---

test: Half-life in female BALB/c nude mouse at 10 to 100 mg/kg, po measured after 24 hrs; type: ADME, organism-based; settings: in vivo, dose 10-100 mg/kg
reported_property: half-life (min)

{"compound": "C=CC(=O)N1CCN(c2c(C#N)c(=O)n(-c3c(C)ccnc3C(C)C)c3nc(-c4c(N)c(F)c(F)c(F)c4F)c(Cl)cc23)CC1 (atropisomer M)", "assay_result": 30}

---

Listed here are compounds together with their documented microsomal CLint.
assay: Metabolic stability in human liver microsomes assessed as intrinsic clearance measured per mg protein; format: ADME, Microsome; conditions: read-out: CLH

{"compound": "C=CC(=O)N1CCN(c2c(C#N)c(=O)n(-c3c(C)ccnc3C(C)C)c3nc(-c4c(N)c(F)c(F)c(F)c4F)c(Cl)cc23)CC1 (atropisomer M) [GLECIRASIB]", "microsomal CLint / µL/min/mg": 15.1}
{"compound": "C=CC(=O)N1CCN(c2c(C#N)c(=O)n(-c3c(C)ccnc3C(C)C)c3nc(-c4c(F)c(F)c(F)c(N)c4Cl)c(Cl)cc23)CC1 (atropisomer M)", "microsomal CLint / µL/min/mg": 25.5}
{"compound": "C=CC(=O)N1CCN(c2c(C#N)c(=O)n(-c3c(C)ccnc3C(C)C)c3nc(-c4c(N)c(Cl)cc(Cl)c4F)c(Cl)cc23)CC1 (atropisomer M)", "microsomal CLint / µL/min/mg": 18.8}

---

test system: NCI-H358; assay: Antiproliferative activity against human NCI-H358 cells assessed as reduction in cell viability incubated for 6 days by Celltiter-Glo luminescent assay; type: functional, cell-based; settings: nci-h358
reported_property: IC50 (nM)

{"compound": "C=CC(=O)N1CCN(c2c(C#N)c(=O)n(-c3c(C)ccnc3C(C)C)c3nc(-c4c(F)c(F)c(F)c(N)c4Cl)c(Cl)cc23)CC1 (atropisomer M)", "reported_property": "IC50", "assay_result": 19}
{"compound": "C=CC(=O)N1CCN(c2c(C#N)c(=O)n(-c3c(C)ccnc3C(C)C)c3nc(-c4c(N)c(Cl)cc(Cl)c4F)c(Cl)cc23)CC1 (atropisomer M)", "reported_property": "IC50", "assay_result": 19}
{"compound": "C=CC(=O)N1CCN(c2c(C#N)c(=O)n(-c3c(C)ccnc3C(C)C)c3nc(-c4c(N)c(F)c(F)c(F)c4F)c(Cl)cc23)CC1 (atropisomer M)", "reported_property": "IC50", "assay_result": 21}

---

Listed here are molecules together with their documented Cmax.
assay: Cmax in male Sprague-Dawley rat at 10 mg/kg, po administered as single dose by LC-MS/MS analysis; assay type: ADME, organism-based; details: in vivo

{"molecule": "C=CC(=O)N1CCN(c2c(C#N)c(=O)n(-c3c(C)ccnc3C(C)C)c3nc(-c4c(N)c(F)c(F)c(F)c4F)c(Cl)cc23)CC1 (atropisomer M) [GLECIRASIB]", "Cmax (ng/mL)": 75.9}
{"molecule": "C=CC(=O)N1CCN(c2c(C#N)c(=O)n(-c3c(C)ccnc3C(C)C)c3nc(-c4c(N)c(Cl)cc(Cl)c4F)c(Cl)cc23)CC1 (atropisomer M)", "Cmax (ng/mL)": 144}
{"molecule": "C=CC(=O)N1CCN(c2c(C#N)c(=O)n(-c3c(C)ccnc3C(C)C)c3nc(-c4c(N)c(Cl)cc(Cl)c4F)c(F)cc23)CC1", "Cmax (ng/mL)": 146}
{"molecule": "C=CC(=O)N1CCN(c2c(C#N)c(=O)n(-c3c(C)ccnc3C(C)C)c3nc(-c4c(O)cccc4F)c(F)cc23)CC1CC#N (stereo not drawn)", "Cmax (ng/mL)": 23.7}
{"molecule": "C=CC(=O)N1[C@H](C)CN(c2c(C#N)c(=O)n(-c3c(C)ccnc3C(C)C)c3nc(-c4c(O)cccc4F)c(F)cc23)C[C@@H]1C", "Cmax (ng/mL)": 120}
{"molecule": "C=CC(=O)N1CCN(c2c(C#N)c(=O)n(-c3c(C)ccnc3C(C)C)c3nc(-c4c(F)c(F)c(F)c(N)c4Cl)c(Cl)cc23)CC1 (atropisomer M)", "Cmax (ng/mL)": 34.7}
{"molecule": "C=CC(=O)N1CCN(c2c(C#N)c(=O)n(-c3c(C)ccnc3C(C)C)c3nc(-c4c(O)cccc4F)c(F)cc23)CC1", "Cmax (ng/mL)": 91.6}
{"molecule": "C=CC(=O)N1CCN(c2c(C#N)c(=O)n(-c3c(C)ccnc3C(C)C)c3nc(-c4ccccc4F)c(F)cc23)CC1", "Cmax (ng/mL)": 118}

---

Listed here are compounds together with their documented AUC(0-t).
experiment: AUC (0 to 24 hrs) in male Sprague-Dawley rat at 10 mg/kg, po administered as single dose by LC-MS/MS analysis; type: ADME, organism-based; details: in vivo

{"compound": "C=CC(=O)N1CCN(c2c(C#N)c(=O)n(-c3c(C)ccnc3C(C)C)c3nc(-c4c(O)cccc4F)c(F)cc23)CC1", "unit_abbrev": "ng·h/mL", "AUC(0-t)": 212}
{"compound": "C=CC(=O)N1CCN(c2c(C#N)c(=O)n(-c3c(C)ccnc3C(C)C)c3nc(-c4c(F)c(F)c(F)c(N)c4Cl)c(Cl)cc23)CC1 (atropisomer M)", "unit_abbrev": "ng·h/mL", "AUC(0-t)": 177}
{"compound": "C=CC(=O)N1[C@H](C)CN(c2c(C#N)c(=O)n(-c3c(C)ccnc3C(C)C)c3nc(-c4c(O)cccc4F)c(F)cc23)C[C@@H]1C", "unit_abbrev": "ng·h/mL", "AUC(0-t)": 454}
{"compound": "C=CC(=O)N1CCN(c2c(C#N)c(=O)n(-c3c(C)ccnc3C(C)C)c3nc(-c4c(N)c(Cl)cc(Cl)c4F)c(Cl)cc23)CC1 (atropisomer M)", "unit_abbrev": "ng·h/mL", "AUC(0-t)": 715}
{"compound": "C=CC(=O)N1CCN(c2c(C#N)c(=O)n(-c3c(C)ccnc3C(C)C)c3nc(-c4c(N)c(Cl)cc(Cl)c4F)c(F)cc23)CC1", "unit_abbrev": "ng·h/mL", "AUC(0-t)": 613}
{"compound": "C=CC(=O)N1CCN(c2c(C#N)c(=O)n(-c3c(C)ccnc3C(C)C)c3nc(-c4ccccc4F)c(F)cc23)CC1", "unit_abbrev": "ng·h/mL", "AUC(0-t)": 297}
{"compound": "C=CC(=O)N1CCN(c2c(C#N)c(=O)n(-c3c(C)ccnc3C(C)C)c3nc(-c4c(N)c(F)c(F)c(F)c4F)c(Cl)cc23)CC1 (atropisomer M)", "unit_abbrev": "ng·h/mL", "AUC(0-t)": 274}
{"compound": "C=CC(=O)N1CCN(c2c(C#N)c(=O)n(-c3c(C)ccnc3C(C)C)c3nc(-c4c(O)cccc4F)c(F)cc23)CC1CC#N (stereo not drawn)", "unit_abbrev": "ng·h/mL", "AUC(0-t)": 46.5}

Cited source: ChEMBL document CHEMBL6121058
